# tested-on: T1, eIF4E (wheat, UniProt P29557 1-215)
# T1 sequence: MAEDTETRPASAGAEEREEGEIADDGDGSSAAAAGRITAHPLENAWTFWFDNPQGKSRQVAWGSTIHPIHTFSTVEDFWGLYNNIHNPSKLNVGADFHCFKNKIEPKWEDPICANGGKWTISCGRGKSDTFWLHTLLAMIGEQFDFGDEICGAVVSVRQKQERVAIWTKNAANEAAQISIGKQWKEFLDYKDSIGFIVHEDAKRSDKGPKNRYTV
# procedure-details: EMSA
readout-label: binding result

The examples below pair each entry with its known result.
INSERT INTO assay_data (binder, result) VALUES
  ('PEMV2 A23G (structured_RNA) RNA: GGUAGAACACGUGGGAUAGGGGGUGACCUUGUCGACCGGUUAUCGGUCCCCUGCUCCUUCGAGCUGGCAAGGCGCUCACAGGUUCUAC', 'no binding'),
  ('PEMV2 U65C (structured_RNA) RNA: GGUAGAACACGUGGGAUAGGGGAUGACCUUGUCGACCGGUUAUCGGUCCCCUGCUCCUUCGAGCCGGCAAGGCGCUCACAGGUUCUAC', 'no binding'),
  ('PEMV2 C49U (structured_RNA) RNA: GGUAGAACACGUGGGAUAGGGGAUGACCUUGUCGACCGGUUAUCGGUCUCCUGCUCCUUCGAGCUGGCAAGGCGCUCACAGGUUCUAC', 'binds'),
  ('PEMV2 G21C (structured_RNA) RNA: GGUAGAACACGUGGGAUAGGCGAUGACCUUGUCGACCGGUUAUCGGUCCCCUGCUCCUUCGAGCUGGCAAGGCGCUCACAGGUUCUAC', 'no binding');

Q: Sample PEMV2 U52C (structured_RNA) RNA: GGUAGAACACGUGGGAUAGGGGAUGACCUUGUCGACCGGUUAUCGGUCCCCCGCUCCUUCGAGCUGGCAAGGCGCUCACAGGUUCUAC — what was its binding result?
Ans: no binding

Q: May I ask what binding result has been recorded for PEMV2 C50U (structured_RNA) RNA: GGUAGAACACGUGGGAUAGGGGAUGACCUUGUCGACCGGUUAUCGGUCCUCUGCUCCUUCGAGCUGGCAAGGCGCUCACAGGUUCUAC ?
Ans: no binding

Q: Requested field: binding result. Item: PEMV2 C50U:G20A (structured_RNA) RNA: GGUAGAACACGUGGGAUAGAGGAUGACCUUGUCGACCGGUUAUCGGUCCUCUGCUCCUUCGAGCUGGCAAGGCGCUCACAGGUUCUAC
Ans: no binding

Q: Need binding result, item PEMV2 U17C:A18U (structured_RNA) RNA: GGUAGAACACGUGGGACUGGGGAUGACCUUGUCGACCGGUUAUCGGUCCCCUGCUCCUUCGAGCUGGCAAGGCGCUCACAGGUUCUAC
Ans: binds

Q: Sample PEMV2 U52C:A26G (structured_RNA) RNA: GGUAGAACACGUGGGAUAGGGGAUGGCCUUGUCGACCGGUUAUCGGUCCCCCGCUCCUUCGAGCUGGCAAGGCGCUCACAGGUUCUAC — what was its binding result?
Ans: no binding
